For each record, write down the corresponding IC50.
Molecular target: human recombinant H-PGDS (Homo sapiens, UniProt O60760)
Sequence (O60760 whole entry): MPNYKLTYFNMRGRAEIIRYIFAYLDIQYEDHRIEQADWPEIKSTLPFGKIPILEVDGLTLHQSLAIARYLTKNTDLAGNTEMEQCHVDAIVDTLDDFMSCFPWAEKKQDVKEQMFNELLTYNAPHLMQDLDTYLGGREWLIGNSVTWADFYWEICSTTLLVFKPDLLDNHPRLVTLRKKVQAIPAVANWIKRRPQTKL
Experiment: Fluorescence intensity h-PGDS TBA enzyme assay
Format: biochemical
Conditions: Examples up to 622 (and 3a, 3b)
// return numeric value only (unit: nM, not printed)

IC50 reading for O=C(NC1CCN(c2ncccc2Cl)CC1)c1ccc(-c2cccc(F)c2)nc1 : 0.354

The measured IC50 associated with Cc1nc(N2CCC(NC(=O)c3ccc(-c4cccc(F)c4)nc3)CC2)c(C#N)cc1F reads 1.21

The measured IC50 associated with CCOC(=O)N1CCC(NC(=O)c2ccc(-c3cccc(F)c3)nc2)CC1 reads 0.387

// N#Cc1ccc(C(F)(F)F)nc1N1CCC(NC(=O)c2ccc(-c3cccc(F)c3)nc2)CC1 : IC50 value = 3.26

The value of IC50 measured for the compound O=C(NC1CCN(Cc2ccc[nH]c2=O)CC1)c1ccc(-c2cccc(F)c2)nc1 turned out to be 0.816

Entry O=C(NC1CCN(Cc2nc(-c3cccc(F)c3)cs2)CC1)c1ccc(-c2cccc(F)c2)nc1 — recorded IC50 = 61.9

Measured IC50, Cn1cnc(CN2CCC(NC(=O)c3ccc(-c4cccc(F)c4)nc3)CC2)c1 : 2.99

Given item Cc1cnc(Cn2cnc3c(N4CCC(NC(=O)c5ccc(-c6cccc(F)c6)nc5)CC4)ncnc32)cn1 , the value recorded as its IC50 is 1.1

Entry O=C(NC1CCN(Cc2cc(Br)ccc2O)CC1)c1ccc(-c2cccc(F)c2)nc1 ; IC50 = 0.928

IC50 for N#Cc1ccccc1CN1CCC(NC(=O)c2ccc(-c3cccc(F)c3)nc2)CC1 is 0.469

Reported IC50 ( COc1ccc2c(N3CCC(NC(=O)c4ccc(-c5cccc(F)c5)nc4)CC3)ncnc2c1OC ) = 0.168

Given item CC(C)c1nnc2ccc(CN3CCC(NC(=O)c4ccc(-c5cccc(F)c5)nc4)CC3)cn12 , the value recorded as its IC50 is 4.14

Given item Cn1c(-c2cccc(C#N)c2)nc2c(N3CCC(NC(=O)c4ccc(-c5cccc(F)c5)nc4)CC3)ncnc21 , the value recorded as its IC50 is 3.85

Entry NC(=O)c1ccc(C(F)(F)F)nc1N1CCC(NC(=O)c2ccc(-c3cccc(F)c3)nc2)CC1 ; IC50 = 1.75

The recorded IC50 for entry O=C(NC1CCN(c2ncccc2C(=O)NC2Cc3ccccc3C2)CC1)c1ccc(-c2cccc(F)c2)nc1 equals 4.97

IC50 reading for Cn1nccc1-c1nc(CN2CCC(NC(=O)c3ccc(-c4cccc(F)c4)nc3)CC2)nn1C : 2.69

Sample Cc1cc(CN2CCC(NC(=O)c3ccc(-c4cccc(F)c4)nc3)CC2)no1 ; IC50 observed: 0.531

Form field IC50, entry Cc1c(CN2CCC(NC(=O)c3ccc(-c4cccc(F)c4)nc3)CC2)cnn1-c1ccccc1 : 2

Briefly, IC50 measured for Cc1c(CN2CCC(NC(=O)c3ccc(-c4cccc(F)c4)nc3)CC2)c(=O)n(C)c(=O)n1C : 0.507

compound COc1ccc(CN2CCC(NC(=O)c3ccc(-c4cccc(F)c4)nc3)CC2)cc1 , IC50 observed: 6.64

Recorded result, O=C(NC1CCN(CC2CCOC2)CC1)c1ccc(-c2cccc(F)c2)nc1 (centres unmarked) , IC50: 0.247

O=C(NC1CCN(Cc2c[nH]cn2)CC1)c1ccc(-c2cccc(F)c2)nc1 [Example 190] yielded IC50 of 1.83

The measured IC50 associated with CC(=O)n1cc(CN2CCC(NC(=O)c3ccc(-c4cccc(F)c4)nc3)CC2)c2ccccc21 reads 1.03

Entry under test: Cc1ccc(CN2CCC(NC(=O)c3ccc(-c4cccc(F)c4)nc3)CC2)c(F)c1F . Its IC50 was 1.18

IC50 for CC(CCC#N)(CN1CCC(NC(=O)c2ccc(-c3cccc(F)c3)nc2)CC1)c1ccccc1 (centres unmarked) is 0.592

Record CC(C)NC(=O)c1ccc(N2CCC(NC(=O)c3ccc(-c4cccc(F)c4)nc3)CC2)nn1 , field IC50: 0.678

Per the records, this compound ( Cc1cc(CN2CCC(NC(=O)c3ccc(-c4cccc(F)c4)nc3)CC2)n(C)n1 ) has IC50 equal to 0.981

# compound O=C(NC1CCN(Cc2ccon2)CC1)c1ccc(-c2cccc(F)c2)nc1 ; its IC50 = 0.299

// field: IC50; key: CCCc1ncc2c(n1)CCC(CN1CCC(NC(=O)c3ccc(-c4cccc(F)c4)nc3)CC1)C2 (centres unmarked) ; value = 0.121

Lookup result for O=C(NC1CCN(c2ccc(C(=O)c3ccccn3)cn2)CC1)c1ccc(-c2cccc(F)c2)nc1 ; measured IC50: 1.82

Short answer for O=C(NC1CCN(Cc2cc(F)ccc2F)CC1)c1ccc(-c2cccc(F)c2)nc1 : IC50 was 0.245

For reference, reported IC50 for COc1ccc(-c2cnc(C)nc2N2CCC(NC(=O)c3ccc(-c4cccc(F)c4)nc3)CC2)cc1OC stands at 1.36

These measurements were taken from patent US7902373B2.
